Data origin: PubChem BioAssay (NCI)

System: HOP-62 NSCLC
ASSAY_COMMENT: NCI-60 one-dose screen, 48 h (100 = growth as untreated, 0 = no growth, -100 = all killed)
DETAILS: 10 µM unless noted
About 83,000 compounds went through this panel and 20% of them were active in at least one assay; those are over-represented in the sample as a whole.
Quick rule for you: growth under 80% gets true (1), anything else gets false (0).

Field: below-cutoff. Rule: recorded growth strictly less than 80%. Subject: Cc1ccc(-c2csc(NC(=O)CN3CCN(c4cc5c(cc4F)c(=O)c(C(=O)O)cn5C4CC4)CC3)n2)cc1
true (1)

Threshold test, growth < 80%: Cc1cc(N)c2cc(NC(=O)/C=C\c3ccccc3Cl)ccc2n1
true (1)

Given the entry Cc1nn(-c2ccccc2)c(Oc2ccccn2)c1-c1nc2ccccc2s1 , would its reported growth be below 80%?
false (0)

Item CC(=O)Nc1nc2ccc(NS(=O)(=O)c3cccc4c(N(C)C)cccc34)cc2[nH]1 : growth beneath 80%, strictly?
true (1)

Below 80% on growth? Entry COC(=O)c1n[nH]c2ccc3nc(-c4cn[nH]c4C(F)(F)F)c4c(c3c12)CCCC4
true (1)

A record lists CCCNC(=O)Oc1ccc(/C(=C(/C)Cc2ccc(OC)cc2)c2ccc(OCCCN(C)C)cc2)cc1 . Is its growth below 80%?
false (0)

###

For each entry below, report its growth value.
Test system: SF-268 CNS
ASSAY_COMMENT: NCI-60 one-dose screen, 48 h (100 = growth as untreated, 0 = no growth, -100 = all killed)
DETAILS: 10 µM unless noted
The panel holds about 83,000 compounds, 20% with a hit somewhere; the sample as a whole holds those more often. Calls of active or inactive are those of the source. How the source made its calls: active means growth percent below 10; inactive means the rest.

Dear colleague, I am looking for the recorded growth of the following molecule: O=C(O)CCCN1C(=O)/C(=C/C(Cl)=C/c2ccccc2)SC1=S
56.1% (inactive)

Report growth for CCCCC[C@@H]1Cc2cc(O)c(C(=O)O)c3c2[C@H](C[C@]2(OC[C@@H](CC(=O)[C@@](C)(CC)C(=O)OC)[C@@H]2C)O3)O1 please.
108% (inactive)

Sample Cc1cc(Cl)ccc1NC(=O)c1cc2ccccc2cc1O — what was its growth?
30.8% (inactive)

Could you tell me which growth is on file for Oc1c(Cl)cc(Cl)cc1/C=N/Nc1nnc(N/N=C/c2cc(Cl)cc(Cl)c2O)c2ccccc12 ?
6.61% (active)

// lookup growth for O=c1oc2c(cnc3ccccc32)cc1-c1ccsc1
94.6% (inactive)

Fill blank: measured growth of the molecule CN1C(=O)N(C)C2Nn3c(s/c(=C\c4ccc(C(F)(F)F)cc4)c3=O)=NC21 (configuration not stated) is ____.
96.9% (inactive)

// lookup growth for O=C(N/N=C/c1ccc(F)cc1)c1ccc(C(F)(F)F)nc1Nc1cccc(C(F)(F)F)c1
9.8% (active)

###

Consider the following compounds; for each one, report its growth.
Test system: BT-549 breast
ASSAY_COMMENT: NCI-60 one-dose screen, 48 h (100 = growth as untreated, 0 = no growth, -100 = all killed)
DETAILS: 10 µM unless noted
This is part of a sample that, as a whole, favours compounds with a hit. Of some 83,000 tested, about 20% had one in any assay. The source made the active and inactive calls. The calls were made as follows: active = growth percent below 10; inactive = the rest.

Request: growth, test system BT-549 breast, entry Nc1ncnc2c1N=C(c1ccc3c(c1)OCO3)CC(c1ccc([N+](=O)[O-])cc1)N2 (stereo not given)
96.2% (inactive)

Give growth (BT-549 breast) of the following compound: CN([O-])c1nc(N(C)[O-])nc(N2CCOCC2)n1.CN([O-])c1nc(N(C)[OH2+])nc(N2CCOCC2)n1.[Fe+3]
85.8% [100 µM] (inactive)

// map O=C(Cn1c(=O)sc2ccccc21)NNS(=O)(=O)c1ccccc1[N+](=O)[O-] to recorded growth (system: BT-549 breast)
116% (inactive)

State its growth on BT-549 breast: O=C(CSc1nc(-c2ccccc2)[nH]c1S(=O)(=O)c1ccccc1)NC1CC1
105% (inactive)

Provide the documented growth with BT-549 breast as the system for CC12CCC3c4ccccc4CCC3(CO1)C2 (stereo not given)
121% (inactive)

# returns recorded growth (system: BT-549 breast) for CC1(c2ccccc2O)NN=C(/N=C/c2cccc([N+](=O)[O-])c2)N1C(Cc1c[nH]c2ccccc12)C(=O)O (stereo not given)
97.5% (inactive)

# value lookup — system BT-549 breast, readout growth, item COc1ccc(C(=S)N2CCN(c3ccccc3Cl)CC2)cc1OC
90.6% (inactive)

// fetch BT-549 breast growth for N#CC1=C(N)Oc2c(sc3c(Br)cccc23)C1c1ccc(F)cc1 (stereo not given)
25.3% (inactive)

Reported growth for BT-549 breast, given CCOC(=O)c1cc(C(=O)c2cc(OC)c(OC)c(OC)c2)n2ccc(-c3ccncc3)cc12 ?
90.6% (inactive)

What value of growth on BT-549 breast does CCCCCCNC(=O)Oc1ccc(/C(=C(/C)Cc2ccc(OC)cc2)c2ccc(OCCCN(C)C)cc2)cc1 have?
79% (inactive)

Report growth for C=C(C)[C@@H]1CC[C@]2(C(=O)OC)CC[C@]3(C)[C@H](CC[C@@H]4[C@@]5(C)C/C(=C/NC(N)=S)C(=O)C(C)(C)[C@@H]5CC[C@]43C)[C@@H]12 tested on BT-549 breast.
126% (inactive)

Hello, I am looking for reported growth with BT-549 breast for COC(=O)c1c2c(c(C)[n+]([O-])c1C)C(=O)C(NCc1ccc(Cl)cc1)=CC2=O . Could you help?
77.9% (inactive)

Checklist item: growth tested on BT-549 breast, entry O=S(=O)(NCCNc1cc(-c2c(-c3cccc(O)c3)nc3sccn23)ccn1)c1ccc(C(F)(F)F)cc1 , value?
26.6% (inactive)

What measured growth is associated with COc1ccc2[nH]cc(-c3nc(-c4c[nH]c5ccncc45)cs3)c2c1 on BT-549 breast?
74% (inactive)

For BT-549 breast, provide growth of O=C1N(Cc2ccccc2Cl)c2ccccc2C12NN=C(c1cccc(Cl)c1)S2 (stereo not given) please.
-20% (active)

I'm curious: which growth was measured for COP(=O)(OC)C(C)(C)CC(=O)CC(C#N)(C#N)C(C#N)C#N tested on BT-549 breast?
96.2% (inactive)

Request body: readout growth, system BT-549 breast, query COc1cc(-n2cc(-c3cc(O)c(C/C=C(\C)CCC=C(C)C)c(O)c3)nn2)cc2c1O[C@]1(C)CC[C@@H](O)C(C)(C)[C@H]1C2 . Return the value.
29% (inactive)

So what growth did N=C(N)c1ccc(-c2ccc(-c3cc(Cl)cc(Cl)c3)o2)o1 get with BT-549 breast?
88.8% (inactive)

Give recorded growth with BT-549 breast for the following compound: CCCc1cc(NC)nc(S(=O)(=O)CC)n1
105% (inactive)

What is its growth for BT-549 breast? Entry: COc1ccc(OC)c(C(=O)/C=C/c2cc3c(c(OC)c2OC)OCO3)c1
65.6% (inactive)

Lab note: need growth for COc1ccc2cc(C(=O)c3coc4ccc(O)cc34)ccc2c1 on BT-549 breast, anyone have it?
94.2% (inactive)

Please tell me: growth of O=C(NCCCCNC(=O)OCc1ccc2c(Cl)cc(Cl)c(O)c2n1)OCc1ccc2c(Cl)cc(Cl)c(O)c2n1 , system BT-549 breast?
15.3% (inactive)

Query for BT-549 breast: what growth does the record show for Cc1ccc2c3c(c(=O)[nH]c2c1)C1(C(C#N)=C(N)O3)c2cc(Br)ccc2-c2ccc(Br)cc21 ?
61.8% (inactive)

Lab note: need growth for O=C1/C(=C/c2ccc(Cl)cc2)COc2ccc(O)c(O)c21 on BT-549 breast, anyone have it?
5.45% (active)

Notebook entry, BT-549 breast assay: growth of CCN1CCN(c2cc(C(=O)Nc3nc(-c4cc(OC)c(OC)c(OC)c4)cs3)cc(C(F)(F)F)c2)CC1 = ?
75.2% (inactive)

Request: growth, test system BT-549 breast, entry O=C(Cn1cc(CN2CCCCCC2)nn1)Nc1ccc2c(ccn2Cc2ccccc2)c1
86.9% (inactive)

Please state recorded growth (tested on BT-549 breast) of NC(=O)CCC(C(=O)O)N1C(=O)c2ccc(O)cc2C1=O (stereo not given)
101% (inactive)

Request body: readout growth, system BT-549 breast, query COC(=O)c1cc(-c2ccc(OC)cc2)[nH]c1N/N=C/c1c(Cl)cccc1Cl . Return the value.
-9.36% (active)

Could you share what growth was measured for CC(=O)Cc1nsc(NC(=O)c2cc(-c3cc(Cl)cc(Cl)c3)oc2C)n1 , tested on BT-549 breast?
98.1% (inactive)

Checklist item: growth tested on BT-549 breast, entry COC(=O)CCC(=O)C(=O)OC , value?
-12.2% [10 mM] (active)

###

Test system: NCI-H322M lung
ASSAY_COMMENT: NCI-60 one-dose screen, 48 h
DETAILS: 10 µM unless noted
Experimental: Growth inhibition of the NCI-H322M human Non-Small Cell Lung tumor cell line is measured as a screen for anti-cancer activity. Cells are grown in 96 well plates and exposed to the test compound for 48 hours. Compounds are tested at a single concentration, which is 10^-5 M for most compounds. The reported endpoint is percent growth (GI% or GIPRCNT), where numbers from 0 - 100% represent growth inhibition, and numbers from -100% - 0 represent cell death. […]
This is part of a sample that, as a whole, favours compounds with a hit. Of some 83,000 tested, about 20% had one in any assay. The source made the active and inactive calls. The calls were made as follows: active = growth percent below 10; inactive = the rest.
Give your call using only these classes: active, inactive

State the result this test recorded for O=C(Nc1nn(-c2ccc(Cl)cc2Cl)nc1-c1ccccc1)c1ccccc1 .
inactive

Give the logged outcome of this assay for the following compound: COc1ccc(C/C(C)=C(/c2ccc(OCCN3CCCCC3)cc2)c2ccc(OC(=O)NCc3ccccc3)cc2)cc1
active

Given O=C1NCCC12CCN(c1c(Cl)cncc1-c1ccc(O)cc1)CC2 , state the outcome it received in this test.
inactive

Each compound tested received a call. Report the one for COc1cc(-c2nc3cc(Cl)c(Cl)cc3[nH]2)ccc1OCC(=O)N=Nc1c(O)[nH]c2ccc([N+](=O)[O-])cc12 .
inactive

For O=C1CNC(c2ccccc2)C(c2ccccc2)N1 (stereo unspecified) , what call appears in the results of this test?
inactive

Lab log entry: CCN(C(=O)N1CCN(c2cc3c(cc2F)c(=O)c(C(=O)O)cn3C2CC2)CC1)c1nc(-c2ccc(Cl)cc2)cs1 — outcome as called in the assay?
inactive

What is the recorded call for this compound in the test? O=C1Nc2ccc(I)cc2C1=O
inactive

Recorded test call requested for OB(O)c1cccc(-c2nc3ccc4[nH]ncc4c3c3c2CCCC3)c1
inactive

Record request — test call for O=S(=O)(NCCCNc1nccc(-c2c(-c3ccc(F)c(O)c3)nc3occn23)n1)c1ccccc1
inactive

Hi, do you know how N#C/C(=C\c1ccc(-c2ccc(Cl)cc2)o1)C(=O)Nc1ncc(Cc2ccc(Cl)cc2)s1 came out in this test?
inactive

// outcome(item) with item = O=C(c1cc2ccccc2o1)c1nn(-c2ccccc2)/c(=N/N=Cc2cn(-c3ccccc3)nc2-c2cc3ccccc3oc2=O)s1
inactive

State the result this test recorded for Cc1cc2c([nH]1)CSc1cc(S(=O)(=O)c3ccccc3)c(=O)[nH]c1-2 .
inactive

Please state the recorded outcome for this compound: O=C(NCc1ccccc1)Nc1ccccc1CNc1nc(Nc2ccc(OCCN3CCCC3)cc2)ncc1Cl
inactive

Write down the call the test reported for this compound. Item: CC1Cc2c(Cl)ncnc2N(C)c2ccc(F)cc21 (stereo unspecified)
inactive

Hi, do you know how COc1ccc2nc(NC(=O)CSc3nnc4n3S(=O)(=O)c3ccccc3N4C)sc2c1 came out in this test?
inactive

Record lookup: outcome of this test for O=C(Nc1cccc([N+](=O)[O-])c1)c1cc2ccccc2cc1O ?
inactive

Record lookup: outcome of this test for Cn1cc(-c2nonc2-c2c[nH]c3ccc(Br)cc23)c2cc(Br)ccc21 ?
inactive

Called result for COC(C(=O)[C@@H](O)[C@@H](C)O)[C@@H]1Cc2cc3cc(O[C@H]4C[C@@H](O[C@H]5C[C@@H](O)[C@H](O)C(C)O5)[C@H](O)C(C)O4)cc(O)c3c(O)c2C(=O)[C@H]1O[C@H]1C[C@@H](O[C@H]2C[C@@H](O[C@H]3C[C@@H](OC)[C@H](O)C(C)O3)[C@@H](O)C(C)O2)[C@H](O)C(C)O1 (stereo partly specified)
inactive

Please state the recorded outcome for this compound: Cc1ccccc1Cn1cnc2ccc(-c3cc(NC(=O)c4ccc(NC5CCN(C)CC5)cc4)n[nH]3)cc21
inactive

Which outcome was entered for the compound COc1ccc(NC(=O)c2sc3nc(C)c(C(=O)/C=C/c4cccc(OC)c4)cc3c2N)cc1 in this test?
inactive

Could you check what this test reported for O=Cc1ccc([N+](=O)[O-])s1 ?
inactive

Hello, I am checking results. What call was entered for O=C1/C(=C/c2ccc(F)cc2)COc2ccc(O)cc21 ?
inactive

Given Cc1cnc(C(=O)NNc2nc3sc4c(c3c(=O)n2C)C(C)CCC4)cn1 (stereo unspecified) , state the outcome it received in this test.
active

Please let me know the test result on file for COc1ccccc1Nc1nc2c(s1)C1=CC[C@H]3[C@@H]4CC[C@H]([C@H](C)CCCC(C)C)[C@@]4(C)CC[C@@H]3[C@@]1(C)CC2 .
inactive

// param item: COc1ccc(-c2ccc3cnc4sc(-c5ccc(OC)cc5)nc4c3n2)cc1 ; yields the recorded call
inactive

Dear all, I need the recorded test outcome for C#CCn1cnc2c(Nc3cccc(NC(=O)C=C)c3)ncnc21 , thank you.
inactive
